Tested on: BT-549 breast
Assay: NCI-60 one-dose screen, 48 h (100 = growth as untreated, 0 = no growth, -100 = all killed)
Details: 10 µM unless noted
Compounds without any hit were thinned out: in the full panel of roughly 83,000, 20% have a hit.
reported-property: growth (%)
Numbers only, in %.

Some entries whose results are on file:
Dear colleague, I am looking for the recorded growth of the following molecule: O=C(CC1(O)C(=O)N(Cc2ccccc2)c2ccc(Br)cc21)c1ccc(C(=O)NCC2CCC3(CC2)OOC2(CCCCC2)OO3)cc1 (centres undefined)
33.9

Please report the recorded growth for Nc1c(F)cc(-c2nc3cc(F)ccc3[se]2)cc1Br .
43

# query: growth of entry C=C1C(=O)O[C@H]2[C@H]1CC/C(COC(=O)C(=O)c1cn(Cc3ccccc3)c3ccccc13)=C\CC[C@@]1(C)O[C@@H]21
-77.4

Next, consider the following molecule.
Recorded growth for C/C(=C\c1ccn(-c2ccc(N)cc2C(F)(F)F)n1)[C@@H]1C[C@@H]2O[C@]2(C)CCC[C@H](C)[C@H](O)[C@@H](C)C(=O)C(C)(C)[C@@H](O)CC(=O)O1 , please?
27

---

Tested on: SK-MEL-28 melanoma
Assay: NCI-60 one-dose screen, 48 h
Details: 10 µM unless noted
This is part of a sample that, as a whole, favours compounds with a hit. Of some 83,000 tested, about 20% had one in any assay. Activity calls are given as the source filed them. Rule for the calls: active = growth percent below 10; inactive = the rest.
Lab note: assign the record to one of True = active, False = inactive

See these solved cases before continuing.
Hi, sorry to bother you, what did the test record for CC(=O)OC[C@]1(C)C=C2C(=O)[C@](C)(O)C3(CC3)C(C)=C2[C@H]1O ?
True

Which outcome did this test record for the molecule COC(=O)[C@@H](C)C[C@H](Cc1ccccc1)NC(=O)c1nc([C@@H](C[C@H](C(C)C)N(C)C(=O)[C@@H](NC(=O)[C@H]2C[C@H](O)CCN2C)C(C)C)OC(C)=O)sc1C(C)C ?
False

Next:
Please indicate how the test categorized COC(=O)[C@@H](C)C[C@H](Cc1ccccc1)NC(=O)c1nc([C@@H](C[C@H](C(C)C)N(C)C(=O)[C@@H](NC(=O)[C@H]2CCCCN2C)C(C)C)OC(C)=O)sc1C .
False

---

Give measured growth for each item. Keep answers brief.
Test system: SF-268 CNS
Assay: NCI-60 one-dose screen, 48 h (100 = growth as untreated, 0 = no growth, -100 = all killed)
Conditions: 10 µM unless noted
Compounds without any hit were thinned out: in the full panel of roughly 83,000, 20% have a hit. The source made the active and inactive calls. Rule for the calls: active = growth percent below 10; inactive = the rest.

Which growth is listed for CNC12C3C4C1C1C2C3C41C(=O)N[C@H](C(=O)N(C)[C@H](C[C@@H](OC(C)=O)c1nc(C(=O)N[C@@H](Cc2ccccc2)C[C@H](C)C(=O)OC)cs1)C(C)C)C1CC1 (some centres undefined) ?
14.4% (inactive)

Requested read-out: growth. Entry: N/C(=N/N=C/c1ccncc1)N[N+](=O)[O-]
102% (inactive)

Reported growth, compound N#C[Se]Cc1cc(-c2ccccc2)n(-c2ccc(S(N)(=O)=O)cc2)n1 : ____
-59.8% (active)

// next entry
Which growth value belongs to O=C(O)c1ccc([S-])cc1.[Au+].c1ccc(CN2[CH-]N(Cc3ccccc3)C(c3ccccc3)=C2c2ccccc2)cc1 ?
-42.7% (active)
